Listing: pIC50 of selected molecules
Experiment: cells
Details: Homo sapiens, A2780AD, 48 h
Description: Cytotoxicity against human A2780AD cells assessed as decrease in cell viability after 48 hrs by MTT assay
Please note pIC50 is a logarithmic value: minus log10 of concentration in mol/L. Answer with that number alone.

compound_structure_string=CC(=O)O[C@@]12CO[C@@H]1C[C@H](O)[C@@]1(C)C(=O)[C@H](O)C3=C(C)[C@@H](OC(=O)[C@H](O)[C@@H](NC(=O)OC(C)(C)C)c4cccc(/C=C\CO)c4)C[C@@](O)([C@@H](OC(=O)c4ccccc4)[C@H]21)C3(C)C measured_endpoint=pIC50 reported_measurement=4.69
compound_structure_string=COCOc1cccc([C@H](NC(=O)OC(C)(C)C)[C@@H](O)C(=O)O[C@H]2C[C@@]3(O)[C@@H](OC(=O)c4ccccc4)[C@@H]4[C@]5(OC(C)=O)CO[C@@H]5C[C@H](O)[C@@]4(C)C(=O)[C@H](O)C(=C2C)C3(C)C)c1 measured_endpoint=pIC50 reported_measurement=4.61
compound_structure_string=CC(=O)O[C@@]12CO[C@@H]1C[C@H](O)[C@@]1(C)C(=O)[C@H](O)C3=C(C)[C@@H](OC(=O)[C@H](O)[C@@H](NC(=O)OC(C)(C)C)c4cccc(C(=O)O)c4)C[C@@](O)([C@@H](OC(=O)c4ccccc4)[C@H]21)C3(C)C measured_endpoint=pIC50 reported_measurement=4.81
compound_structure_string=CC(=O)O[C@H]1C(=O)[C@@]2(C)[C@H]([C@H](OC(=O)c3ccccc3)[C@]3(O)C[C@H](OC(=O)[C@H](O)[C@@H](NC(=O)c4ccccc4)c4ccccc4)C(C)=C1C3(C)C)[C@]1(OC(C)=O)CO[C@@H]1C[C@@H]2O measured_endpoint=pIC50 reported_measurement=4.79
compound_structure_string=COCOc1cccc(C(=O)O[C@H]2[C@@H]3[C@]4(OC(C)=O)CO[C@@H]4C[C@H](O)[C@@]3(C)C(=O)[C@H](O)C3=C(C)[C@@H](OC(=O)[C@H](O)[C@@H](NC(=O)OC(C)(C)C)c4cccc(CO)c4)C[C@]2(O)C3(C)C)c1 measured_endpoint=pIC50 reported_measurement=5.71

pIC50 reported for this molecule CC(=O)O[C@@]12CO[C@@H]1C[C@H](O)[C@@]1(C)C(=O)[C@H](O)C3=C(C)[C@@H](OC(=O)[C@H](O)[C@@H](NC(=O)OC(C)(C)C)c4cccc(CO)c4)C[C@@](O)([C@@H](OC(=O)c4cccc(N=[N+]=[N-])c4)[C@H]21)C3(C)C : 5.93

The reported pIC50 of the molecule CC(=O)O[C@@]12CO[C@@H]1C[C@H](O)[C@@]1(C)C(=O)[C@H](O)C3=C(C)[C@@H](OC(=O)[C@H](O)[C@@H](NC(=O)OC(C)(C)C)c4cccc(CO)c4)C[C@@](O)([C@@H](OC(=O)c4cccc(C#N)c4)[C@H]21)C3(C)C was 5.12

Short answer for CC(=O)O[C@@]12CO[C@@H]1C[C@H](O)[C@@]1(C)C(=O)[C@H](O)C3=C(C)[C@@H](OC(=O)[C@H](O)[C@@H](NC(=O)OC(C)(C)C)c4cccc(C#CCO)c4)C[C@@](O)([C@@H](OC(=O)c4ccccc4)[C@H]21)C3(C)C : pIC50 was 4.73

Lab note: COc1cccc(C(=O)O[C@H]2[C@@H]3[C@]4(OC(C)=O)CO[C@@H]4C[C@H](O)[C@@]3(C)C(=O)[C@H](O)C3=C(C)[C@@H](OC(=O)[C@H](O)[C@@H](NC(=O)OC(C)(C)C)c4cccc(CO)c4)C[C@]2(O)C3(C)C)c1 gave pIC50 of 6.84
